Recorded normalized growth for the following compounds
assay text: chemical genetic growth profiling, strain panel (AID 1159580);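 note: tested at 20 µM; growth read once vehicle control cultures reached saturation at 30 °C; 1 = growth at the plate median or of vehicle wells; lower values mean less growth of the strain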
test parameters: S. cerevisiae deletion strains, growth OD, locus YJR066W, strain TOR1, stronger effect = lower value
The whole screen tested about 5,500 compounds, of which about 2,000 (36%) were called active. Inconclusive results (about 18%) are left out. Some of the results follow.
Output spec: single numeric token, no unit.

Worked examples, 2 compounds total:
>>> value("COc1ccc(-c2oc3cc(OC)c(OC)c(OC)c3c(=O)c2OC)cc1")
0.967
>>> value("O=c1[nH]c(=O)n(C2C[C@H](O)[C@@H](CO)O2)cc1C(F)(F)F (stereo partly specified)")
0.963

query: Entry `COc1ccc(-c2oc3cc(OC)c(OC)c(OC)c3c(=O)c2OC)cc1OC` has what normalized growth?
result: 1

query: Param item: CC(=O)O[C@H]1CC[C@@]2(C)C(C[C@@H](OC(C)=O)[C@]3(C)C2CC[C@@]2(C)[C@H](c4ccoc4)OC(=O)[C@H]4O[C@]423)C1(C)C (stereo partly specified)
result: 0.997

query: Param item: `Cc1cc(/C=C/c2ccc3cc(N(C)C)ccc3[n+]2C)c(C)n1-c1ccccc1`
result: 0.948

query: Param item: `COc1ccc(-c2oc3ccccc3c(=O)c2OC)cc1`
result: 0.829

query: Param item: `N/C(=N/O)c1ccc(Oc2ccc(C3SCCS3)cc2)c([N+](=O)[O-])c1`
result: 1.02

query: Param item: `CC(C)c1nc(N(C)S(C)(=O)=O)nc(-c2ccc(F)cc2)c1/C=C/[C@@H](O)C[C@@H](O)CC(=O)O`
result: 0.00783

query: Param item: `COc1ccc2c(=O)c(OC)c(-c3ccccc3)oc2c1`
result: 0.867

query: Param item: `COc1ccc(Nc2nc(NC(=O)Nc3ccc(Cl)cc3)n[nH]2)cc1`
result: 0.929

query: Param item: `CN(C)c1ccc(/C=C/c2ccc3ccccc3[n+]2C)cc1`
result: 0.607

query: Param item: `Cc1c(S(=O)(=O)Nc2cccc([N+](=O)[O-])c2)sc2ccc(Cl)cc12`
result: 1.03

query: Param item: `COc1c(C)c2c(c(O)c1C/C=C(\C)CCC(=O)O)C(=O)OC2`
result: 0.0708

query: Param item: `Nc1ccc(Oc2ccc(Cl)cc2C2CCCCC2)nc1`
result: 0.787

query: Param item: CC(=O)O[C@@H]1CC2C(C)(C)[C@H](O)CC[C@]2(C)C2CC[C@@]3(C)[C@H](c4ccoc4)OC(=O)C4OC43[C@@]21C (stereo partly specified)
result: 1

query: Param item: `Clc1ccc(CSc2nccn2-c2cc(Cl)ccc2Cl)cc1`
result: 0.948

query: Param item: `Cc1ccc(-c2nc(NS(=O)(=O)c3cccc4nonc34)sc2C)cc1Cl`
result: 1.1

query: Param item: O=c1cccc2n1CC1CC2CN2CCCC[C@@H]12 (stereo partly specified)
result: 0.98

query: Param item: `Oc1c(Cl)cc(Cl)c(Cl)c1Cc1c(O)c(Cl)cc(Cl)c1Cl`
result: 0.0109

query: Param item: O=C(Nc1ccccc1)OCC(CN1CCCCC1)OC(=O)Nc1ccccc1 (stereo unspecified)
result: 0.925

query: Param item: `COc1ccc2oc(-c3ccccc3)c(OC)c(=O)c2c1`
result: 0.867
